Tested on: K-562 leukemia
Assign a class; possible classes are true (1) for active, false (0) for inactive

Before answering, review these 5 worked examples.
INSERT INTO assay_data (compound, class) VALUES
  ('N#Cc1cnc2cc(OC[C@@H](O)CO)c(NC(=O)CC3CSSC3)cc2c1Nc1ccc(OCc2cccc(F)c2)c(Cl)c1', 'true (1)'),
  ('CC1=C[C@H]2c3c(c(O)c(O)c4oc5ccccc5c(=O)c34)[C@H](c3cc(O)c(O)c4oc5ccccc5c(=O)c34)[C@H]2C(C)(C)C1', 'true (1)'),
  ('CC[C@@]1(O)C(=O)NCc2c1cc1n(c2=O)Cc2cc3c(N)cccc3nc2-1', 'false (0)'),
  ('NNc1cccc(/C=C/c2ccccc2)cc1=O', 'false (0)'),
  ('COCCOC(=O)NC(=O)Nc1ccc(/C(=N/O)c2ccc(Cl)cc2)cc1', 'true (1)');

API: the following record is the query input.
Each compound tested received a call. Report the one for "CN(C)CCCN1c2nc3ccccc3cc2Sc2cc3ccccc3nc21" .
false (0)

====

System: SF-295 CNS
experimental_readout: GI50

Past entries and their recorded results:
INSERT INTO measurements (compound, reading) VALUES
  ('CCOC(=O)c1[nH]c(-c2ccc(Cl)cc2)cc1-c1cccnc1', '453 nM'),
  ('Cc1cc(C)c(C[N+](C)(C)C)c(C)c1C', '255 nM'),
  ('COc1ccccc1NC(=O)n1nc(N)c2ccccc21', '52100 nM'),
  ('COc1cc(/C=C2\CC3C4CC=C5C[C@@H](OC(C)=O)CC[C@]5(C)C4CC[C@]3(C)C2=O)ccc1OCCCn1ccnc1 (some centres undefined)', '9220 nM'),
  ('N#Cc1cnc2cc(OC[C@@H](O)CO)c(NC(=O)CC3CSSC3)cc2c1Nc1ccc(OCc2cccc(F)c2)c(Cl)c1', '880 nM');

Batch request: GI50 per item, same order as input.
1. CC1(C)OC(=O)C=C([O-])O1.CC1(C)OC(=O)C=C([O-])O1.O=S(=O)([O-])c1ccc([O-])c2ncccc12.O=S(=O)([O-])c1ccc([O-])c2ncccc12.[Ti+4]
2. O=C(Nc1ccc(F)cc1)c1c(NC(=O)C(F)(F)F)sc2c1CCCCC2
3. Clc1ccc2[nH]cc(-c3nc(-c4c[nH]c5ncccc45)cs3)c2c1

["> 100000 nM", "1010 nM", "2740 nM"]

So what's the measured GI50 for this one? COC1CC2C=C(C)/C=C/C=C/C(=O)NC(c3ccccc3)C/C=C/CCC(O)CC(=O)C2=C1O (centres undefined)
246 nM

====

Test system: SW-620 colon
Test: NCI tumour cell line growth inhibition, 48 h
experimental_readout: TGI

Past entries and their recorded results:
INSERT INTO assay_data (compound, reading) VALUES
  ('Nc1ccc(S(=O)(=O)C23CC4CC(CC(C4)C2)C3)cc1', '> 100 µM'),
  ('CC(=O)O[C@H]1CC[C@@]2(C)C(=CC[C@H]3[C@@H]4C/C(=C\c5cccc(OCCN6CCOCC6)c5)[C@H](OC(C)=O)[C@@]4(C)CC[C@@H]32)C1', '15.7 µM');

Batch request: TGI per item, same order as input.
1. CC[C@@]1(O)C(=O)NCc2c1cc1n(c2=O)Cc2cc3c(N)cccc3nc2-1
2. Nc1nc2c(c(=O)[nH]1)N(C=O)C(CNc1ccc(C(=O)N[C@@H](CCC(=O)O)C(=O)O)cc1)CN2 (stereo not given in full)
3. COc1c(C(=O)O)oc2c(OC)cccc12
4. ClC(Cl)c1nc(-c2cccnc2)n2nc(-c3ccccc3)cc2n1

1: > 100 µM; 2: > 125 µM; 3: > 100 µM; 4: 5.3 µM

Batch request: TGI per item, same order as input.
1. C=CCOc1ccccc1N=N/C(C#N)=N\Nc1ccccc1OCC=C
2. COc1cc2noc(-c3ccccc3)c2cc1OC
3. O=C(Nc1ccc(Cl)cc1)c1ccc(NC2=C(Cl)C(=O)N(Cc3ccccc3)C2=O)cc1
4. CN(C(=O)Cc1ccc(Cl)c(Cl)c1)[C@H]1CCCC[C@@H]1[N+]1(C)CCCC1

1: > 100 µM; 2: > 100 µM; 3: > 100 µM; 4: > 100 µM

====

Would you mind telling me the reported TGI of each entry?
Tested on: CCRF-CEM leukemia
Assay: NCI tumour cell line growth inhibition, 48 h
Give bare numbers, in µM.

Past entries and their recorded results:
INSERT INTO assay_data (compound, reading) VALUES
  ('NCCCn1c2ccccc2c2c3c(c4c(c21)CCC(O)CC4)C(=O)NC3=O (stereo not given)', 10.4),
  ('COc1cc(/C=C\[N+](=O)[O-])ccc1OCc1ccccc1', 11.5),
  ('CC(C)C(C/C=C1\CC(CO)(COC(=O)c2ccccc2)OC1=O)C(C)C (stereo not given)', 44.1),
  ('COc1cc2c3c(n(CCCNCCN)c(=O)c2cc1OC)-c1cc2c(cc1C3=O)OCO2', 0.339),
  ('Cc1cc(O)c2c(c1O)C(=O)C13C(=C2O)C(=O)C2C(O)C1C1C(O)C3C(=O)C3=C(O)c4c(O)cc(C)c(O)c4C(=O)C321 (stereo not given)', 0.613);

Batch request: TGI per item, same order as input.
1. CC(=O)O[C@H]1CC[C@@]2(C)C(=CC[C@H]3[C@@H]4C/C(=C\c5cccc(OCCN6CCOCC6)c5)[C@H](OC(C)=O)[C@@]4(C)CC[C@@H]32)C1
2. COC(=O)C(CCc1ccccc1I)C1=CCC2(CC1)OCCO2 (stereo not given)
3. CCC1C(c2cccc(OC)c2O)c2cc3c(cc2OC1N1CCCC1)OCO3 (stereo not given)

16.7
33.7
46.7

====

Would you mind telling me the reported GI50 of each entry?
Tested on: NCI-H23 lung

Past entries and their recorded results:
INSERT INTO assay_data (compound_structure, experimental_readout, reading) VALUES
  ('CC(=O)O[C@H]1CC[C@@]2(C)C(=CC[C@H]3[C@@H]4C/C(=C\c5cccc(OCCN6CCOCC6)c5)[C@H](OC(C)=O)[C@@]4(C)CC[C@@H]32)C1', 'GI50', '6.97 µM'),
  ('Cc1nc2ccc(Nc3nc(NCCN4CCOCC4)nc(Nc4ccc(F)cc4)n3)cc2n1Cc1ccccc1', 'GI50', '3.67 µM'),
  ('CC/C=C\C[C@H](O)C/C=C1/C(=O)C=C[C@@H]1C/C=C\CCCC(=O)N(C)C', 'GI50', '2 µM'),
  ('COc1ccc(-c2cc(/C=C3\C(=O)Nc4ccc(Cl)cc43)[nH]n2)cc1', 'GI50', '3.73 µM'),
  ('COc1ccc2c(Nc3ccc(NS(C)(=O)=O)cc3)c3ccccc3nc2c1', 'GI50', '0.475 µM');

Below: the item to evaluate.
So what's the measured GI50 for this one? "Cn1c(=O)c(Oc2ccccc2F)cc2cnc(NC3CCOCC3)nc21"
> 25 µM

====

Would you mind telling me the reported TGI of each entry?
Test system: CAKI-1 renal
Experiment: NCI tumour cell line growth inhibition, 48 h

INSERT INTO results (compound, experimental_readout, reading) VALUES
  ('CC(C)C(C/C=C1\CC(CO)(COC(=O)c2ccccc2)OC1=O)C(C)C (centres undefined)', 'TGI', '33.8 µM'),
  ('O=C1C(NCCc2ccc(O)c(O)c2)=CC(=O)c2ncccc21', 'TGI', '21.5 µM'),
  ('CC(C)(C)NCc1cc(C(C)(C)C)cc(-c2ccc(Cl)cc2)c1O', 'TGI', '25.6 µM'),
  ('O=c1c(SSc2coc3cc(F)ccc3c2=O)coc2cc(F)ccc12', 'TGI', '43.3 µM'),
  ('O=S(=O)(NCC1CCC(CNc2ccc(Cl)cc2)CC1)c1ccc(-c2ccccc2)cc1 (centres undefined)', 'TGI', '> 50 µM');

Batch request: TGI per item, same order as input.
1. CCOc1cc2c(NCCCN(CCO)CCO)ncnc2c(OCC)c1OCC
2. COc1ccccc1NC(=O)n1nc(N)c2ccccc21
3. O=c1[nH]nc(-c2ccccc2)n1/N=C/c1c[nH]c2ccccc12
4. Cc1sc(C)c(Cc2c(C)sc(C)c2CCl)c1CCl
5. C/C(=N/NC(=S)Nc1ccccc1Cl)c1cccc(/C(C)=N\NC(=S)Nc2ccccc2Cl)n1
6. CCCCCCCCCCCCCCCCCCNc1ccn(C2OC(COP(=O)(O)OCC3CCC(n4cnc5c(=O)[nH]cnc54)O3)C(O)C2O)c(=O)n1 (centres undefined)
7. Cc1ccc(N=Nc2c(O)ccc3cc(S(=O)(=O)O)ccc23)c(C)c1

1: > 100 µM; 2: > 100 µM; 3: > 100 µM; 4: > 100 µM; 5: > 100 µM; 6: > 100 µM; 7: > 100 µM

Batch request: TGI per item, same order as input.
1. COC(=O)C1=C(C)NC2(O)C=CC(=O)C3C(=O)N(c4ccccc4)C(=O)C132 (centres undefined)
2. COc1ccc(S(=O)(=O)O)cc1-n1nc(C(=O)Nc2ccccc2)n[n+]1-c1cc(S(=O)(=O)[O-])ccc1OC

1: > 100 µM; 2: > 100 µM
